# Test system: Mus musculus
# experimental details: Number of survivors out of 6 ip implanted L1210 leukemia in mouse after ip administration of 20 mg/kg after 80 days
# Type: functional
# condition summary: route intraperitoneal
For each of the compounds below, state its Cures.

Take a look at these entries with their results.
{"columns": ["compound", "Cures"],
 "data": [
  ["Cc1c2cc[n+]([C@H]3O[C@@H](C)[C@@H](O)[C@@H](O)[C@@H]3O)cc2c(C)c2c1[nH]c1ccc(O)cc12.[Br-] (stereo in doubt; 56)", 1],
  ["Cc1c2cc[n+]([C@@H]3OC[C@@H](O)[C@H](O)[C@@H]3O)cc2c(C)c2c1[nH]c1ccc(O)cc12.[Cl-]", 1],
  ["Cc1c2cc[n+]([C@@H]3O[C@H](CO)[C@H](O)[C@@H]3O)cc2c(C)c2c1[nH]c1ccc(O)cc12.[Cl-] (stereo in doubt; 43a)", 3]
]}

Attention now turns to another entry.
Q. With Mus musculus as the test system, provide measured Cures for this compound: Cc1c2cc[n+]([C@@H]3O[C@H](CO)[C@H](O)[C@H]3O)cc2c(C)c2c1[nH]c1ccc(O)cc12.[Cl-]
A. 1

###

For each of the molecules below, state its ILS.
# Test system: Mus musculus
# experimental details: Antitumor activity against ip implanted L1210 leukemia in mouse after ip administration of 30 mg/kg for 5 days expressed as increase in mean life span
# Type: functional
# condition summary: route intraperitoneal, 30 mg/kg

{"columns": ["molecule", "ILS"],
 "data": [
  ["Cc1c2cc[n+]([C@H]3O[C@@H](C)[C@@H](O)[C@@H](O)[C@@H]3O)cc2c(C)c2c1[nH]c1ccc(O)cc12.[Br-] (stereo in doubt; 53b)", ">583%"],
  ["Cc1c2cc[n+]([C@@H]3OC[C@@H](O)[C@@H](O)[C@H]3O)cc2c(C)c2c1[nH]c1ccc(O)cc12.[Br-] (stereo in doubt; 48b)", ">944%"],
  ["Cc1c2cc[n+]([C@@H]3OC[C@@H](O)[C@@H](O)[C@H]3O)cc2c(C)c2c1[nH]c1ccc(O)cc12.[Br-] (stereo in doubt; 50a)", ">857%"],
  ["Cc1c2cc[n+]([C@H]3O[C@@H](C)[C@@H](O)[C@@H](O)[C@@H]3O)cc2c(C)c2c1[nH]c1ccc(O)cc12.[Br-] (stereo in doubt; 56)", ">693%"]
]}

Attention now turns to another entry.
Q. Answer with the recorded ILS for the molecule listed here: Cc1c2cc[n+]([C@@H]3OC[C@@H](O)[C@@H](O)[C@H]3O)cc2c(C)c2c1[nH]c1ccc(O)cc12.[Br-] (stereo in doubt; 48a)
A. 112%

###

# Test system: Mus musculus
# experimental details: Antitumor activity against ip implanted L1210 leukemia in mouse after ip administration of 30 mg/kg for 5 days expressed as increase in mean life span
# Type: functional
# condition summary: Mus musculus, L1210, ip, 120 h, route intraperitoneal
For each of the compounds below, state its ILS at 30 mg/kg.

{"columns": ["compound", "system", "measured result"],
 "data": [
  ["CC(=O)[O-].Cc1c2cc[n+]([C@H]3O[C@@H](CO)[C@H](O)[C@H]3O)cc2c(C)c2c1[nH]c1ccc(O)cc12", "Mus musculus", "> 269%"],
  ["Cc1c2cc[n+]([C@@H]3O[C@H](CO)[C@H](O)[C@H]3O)cc2c(C)c2c1[nH]c1ccc(O)cc12.[Cl-]", "Mus musculus", "> 682%"],
  ["CC(=O)N[C@@H]1[C@@H](O)[C@@H](O)[C@@H](CO)O[C@H]1[n+]1ccc2c(C)c3[nH]c4ccc(O)cc4c3c(C)c2c1.[Cl-]", "Mus musculus", "8%"]
]}

Q. Answer with the recorded ILS at 30 mg/kg for the compound listed here: COc1ccc2[nH]c3c(C)c4cc[n+](C5O[C@@H](CO)[C@H](O)[C@@H]5O)cc4c(C)c3c2c1.[Br-] (some centres undefined)
A. 76%
